Origin of values: patent US20100278733A1

test: In-vivo radioactivity distribution experiment using normal mice (Example 2); conditions: normal mice, intravenous, 60 min; Example 2 numbering
Value Type: In-vivo radioactivity distribution: heart

Solved entries (count: 3):
> print(dat)
                           smiles.input                         test.value
1        CNc1ccc(C=CC(=O)c2ccc(I)s2)cc1  1.43 (0.29) percent of the dose/g
2  CN(C)c1ccc(C(=O)/C=C/c2ccc(I)cc2)cc1  0.84 (0.26) percent of the dose/g
3     CNc1ccc(C(=O)/C=C/c2ccc(I)cc2)cc1  0.82 (0.14) percent of the dose/g

Next compound, please.
Data request: Identify the reported In-vivo radioactivity distribution: heart for the following entry. `CN(C)c1ccc(C=CC(=O)c2ccc(I)s2)cc1`
Data returned: 1.65 (0.24) percent of the dose/g

* * *

Each record here notes measured In-vivo radioactivity distribution: intestine.
assay: In-vivo radioactivity distribution experiment using normal mice (Example 2); details: normal mice, intravenous, 2 min; Example 2 numbering

> print(dat)
                           smiles.input                         test.value
1     CN(C)c1ccc(C=CC(=O)c2ccc(I)s2)cc1  1.73 (0.21) percent of the dose/g
2  CN(C)c1ccc(C(=O)/C=C/c2ccc(I)cc2)cc1  2.69 (0.43) percent of the dose/g
3     CNc1ccc(C(=O)/C=C/c2ccc(I)cc2)cc1  2.52 (0.81) percent of the dose/g

Let us move to another entry and its In-vivo radioactivity distribution: intestine.
Data request: Give the reported In-vivo radioactivity distribution: intestine for this molecule. `CNc1ccc(C=CC(=O)c2ccc(I)s2)cc1`
Data returned: 1.60 (0.32) percent of the dose/g

* * *

target: Aβ(1-42) aggregate (Homo sapiens, UniProt P05067); construct: Amyloid β protein (Human, 1-42) [TFA form] was purchased from Peptide Institute, Inc; purchased Peptide Institute, Inc; test: In-vitro binding inhibition experiment using Aβ(1-42) aggregate (Example 1); conditions: ligand [^125I]4-dimethylamino-4′-iodochalcone; mean and standard deviation of three experiments; compound numbers of Example 1; read-out: Inhibition constants (Ki) for binding to Aβ(1-42) aggregate
Sequence (P05067 672-713 limits assumed): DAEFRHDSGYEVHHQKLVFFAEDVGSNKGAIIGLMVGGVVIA
Value Type: pKi
Units for pKi: none; it is -log10 of a concentration expressed in mol/L.

Data request: # return recorded pKi for entry `CN(C)c1ccc(/C=C/C(=O)c2ccc(I)s2)cc1`
Data returned: 8.28

* * *

molecular target: Aβ(1-42) aggregate (Homo sapiens); construct: Amyloid β protein (Human, 1-42) [TFA form] was purchased from Peptide Institute, Inc; purchased Peptide Institute, Inc; assay: In-vitro binding inhibition experiment using Aβ(1-42) aggregate (Reference Example 2); settings: ligand [^125I]4-dimethylamino-4′-iodochalcone; compound numbers of Reference Example 2; read-out: Inhibition constant (Ki, nM) (mean ± SE)
Value Type: Ki (nM)

(A) CNc1ccc(/C=C/C(=O)c2ccc(OCCOCCF)cc2)cc1 [Compound 17 in Reference Example 2]
(B) Nc1ccc(/C=C/C(=O)c2ccc(OCCF)cc2)cc1 [Compound 11 in Reference Example 2]
Data request: // select label with min value of measured Ki from [ A , B ] When you have decided, please share the label of that item.
Data returned: A
(A: 187 nM, B: 553 nM)

* * *

assay: In-vivo radioactivity distribution experiment using normal mice (Example 2); conditions: normal mice, intravenous, 10 min; Example 2 numbering
Value Type: In-vivo radioactivity distribution: intestine

> print(dat)
                        smiles.input                         test.value
1  CN(C)c1ccc(C=CC(=O)c2ccc(I)s2)cc1  2.57 (0.53) percent of the dose/g

Data request: Return reported In-vivo radioactivity distribution: intestine. Input compound: `CNc1ccc(C(=O)/C=C/c2ccc(I)cc2)cc1`
Data returned: 7.78 (1.31) percent of the dose/g

Data request: In one line, give reported In-vivo radioactivity distribution: intestine of the entry `CN(C)c1ccc(C(=O)/C=C/c2ccc(I)cc2)cc1` .
Data returned: 9.27 (1.36) percent of the dose/g

Data request: // fetch In-vivo radioactivity distribution: intestine given entry `CNc1ccc(C=CC(=O)c2ccc(I)s2)cc1`
Data returned: 3.86 (0.20) percent of the dose/g

* * *

Reported In-vivo radioactivity distribution: kidney values for the following molecules.
experiment: In-vivo radioactivity distribution experiment using normal mice (Example 2); conditions: normal mice, intravenous, 60 min; Example 2 numbering

Example cases with answers are listed next.
> print(dat)
                           smiles.input                         test.value
1        CNc1ccc(C=CC(=O)c2ccc(I)s2)cc1  2.52 (0.48) percent of the dose/g
2  CN(C)c1ccc(C(=O)/C=C/c2ccc(I)cc2)cc1  4.59 (1.57) percent of the dose/g
3     CN(C)c1ccc(C=CC(=O)c2ccc(I)s2)cc1  2.44 (0.35) percent of the dose/g

With those in mind, consider the next molecule.
Data request: Supply measured In-vivo radioactivity distribution: kidney of `CNc1ccc(C(=O)/C=C/c2ccc(I)cc2)cc1` in your reply.
Data returned: 4.04 (1.10) percent of the dose/g

* * *

test: In-vivo radioactivity distribution experiment using normal mice (Example 2); conditions: normal mice, intravenous, 10 min; Example 2 numbering
Value Type: In-vivo radioactivity distribution: liver

These recorded examples may help you get a feel for the data.
> print(dat)
                                   molecule                          test.value
1  CN(C)c1ccc(C=CC(=O)c2ccc(I)s2)cc1 [Compound 14 in Example 2]   7.10 (1.08) percent of the dose/g
2  CNc1ccc(C=CC(=O)c2ccc(I)s2)cc1 [Compound 13 in Example 2]  13.29 (1.65) percent of the dose/g
3  CNc1ccc(C(=O)/C=C/c2ccc(I)cc2)cc1 [Compound 7 in Example 2, 4-iodo-4′-methylaminochalcone]   9.42 (1.92) percent of the dose/g

API: the following record is the query input.
Data request: Indicate the recorded In-vivo radioactivity distribution: liver value for this molecule: CN(C)c1ccc(C(=O)/C=C/c2ccc(I)cc2)cc1 [Compound 10 in Example 2, 4-iodo-4′-dimethylaminochalcone]
Data returned: 10.29 (2.06) percent of the dose/g

* * *

# key: entry, value: In-vivo radioactivity distribution: kidney
experiment: In-vivo radioactivity distribution experiment using normal mice (Example 2); conditions: normal mice, intravenous, 2 min; Example 2 numbering

Consider the worked cases shown below.
> print(dat)
                           smiles.input                         test.value
1        CNc1ccc(C=CC(=O)c2ccc(I)s2)cc1  4.50 (1.00) percent of the dose/g
2  CN(C)c1ccc(C(=O)/C=C/c2ccc(I)cc2)cc1  6.30 (0.85) percent of the dose/g
3     CN(C)c1ccc(C=CC(=O)c2ccc(I)s2)cc1  7.41 (1.54) percent of the dose/g

Continue with the next compound.
Data request: Recall and state the measured In-vivo radioactivity distribution: kidney for `CNc1ccc(C(=O)/C=C/c2ccc(I)cc2)cc1` .
Data returned: 6.20 (0.93) percent of the dose/g

* * *

biological target: Aβ(1-42) aggregate (Homo sapiens); construct: Amyloid β protein (Human, 1-42) [TFA form] was purchased from Peptide Institute, Inc; purchased Peptide Institute, Inc; assay: Examination of binding site by binding inhibition experiment using Aβ(1-42) aggregate (Example 2); conditions: FIG. 10, compound numbers of Example 2, read-out: Ki for inhibition of binding of [^125I]CL-NMe2 to the Aβ(1-42) aggregate
Value Type: Ki (nM)
Numeric only. Scale: nM

Data request: Specify Ki for `CN(C)c1ccc(C=CC(=O)c2ccc(I)s2)cc1` and stop.
Data returned: 4

* * *

The following molecules are shown together with reported In-vivo radioactivity distribution: intestine values.
test: In-vivo radioactivity distribution experiment using normal mice (Example 2); conditions: normal mice, intravenous, 60 min; Example 2 numbering

> print(dat)
                           smiles.input                          test.value
1        CNc1ccc(C=CC(=O)c2ccc(I)s2)cc1   6.26 (1.78) percent of the dose/g
2  CN(C)c1ccc(C(=O)/C=C/c2ccc(I)cc2)cc1  20.09 (5.48) percent of the dose/g
3     CNc1ccc(C(=O)/C=C/c2ccc(I)cc2)cc1  18.47 (2.31) percent of the dose/g

Data request: Provide measured In-vivo radioactivity distribution: intestine value, entry: `CN(C)c1ccc(C=CC(=O)c2ccc(I)s2)cc1`
Data returned: 4.69 (1.64) percent of the dose/g

* * *

// In-vivo radioactivity distribution: heart lookup, one value per entry
test: In-vivo radioactivity distribution experiment using normal mice (Example 2); settings: normal mice, intravenous, 10 min; Example 2 numbering

Data request: Respond only with In-vivo radioactivity distribution: heart recorded for `CN(C)c1ccc(C=CC(=O)c2ccc(I)s2)cc1`
Data returned: 3.02 (0.60) percent of the dose/g

Data request: Respond only with In-vivo radioactivity distribution: heart recorded for `CNc1ccc(C=CC(=O)c2ccc(I)s2)cc1`
Data returned: 2.48 (0.36) percent of the dose/g

Data request: Provide only the value of recorded In-vivo radioactivity distribution: heart for `CN(C)c1ccc(C(=O)/C=C/c2ccc(I)cc2)cc1`
Data returned: 2.05 (0.37) percent of the dose/g

Data request: Return reported In-vivo radioactivity distribution: heart. Input compound: `CNc1ccc(C(=O)/C=C/c2ccc(I)cc2)cc1`
Data returned: 1.98 (0.24) percent of the dose/g
